Data provenance is the supplement of paper PMC11451515.

- Test system: NOMO1
- method_summary: cell viability relative to DMSO control; higher = less cytotoxic
- assay_setup: RPMI 5 mM glucose + 10% dialyzed FBS; 48 h; 15.4 µM
The reader will find reported cell viability values listed item by item below.
observable: cell viability

INSERT INTO measurements (compound, assay_system, observable, value_observed) VALUES
  ('COCCNCCCn1c(C(=O)CF)c(-c2ccc(C)cc2)c2c(N)ncnc21', 'NOMO1', 'cell viability', '93%'),
  ('O=P1(NCCCl)OCCCN1CCCl (stereo not drawn)', 'NOMO1', 'cell viability', '98.5%'),
  ('COc1cc([C@@H]2c3cc4c(cc3[C@@H](O)C3COC(=O)C32)OCO4)cc(OC)c1O (stereo partly drawn)', 'NOMO1', 'cell viability', '23%'),
  ('COC1=CC=CC(=C1/C2=N/CC3=C(N=C(NC4=CC(=C(C=C4)C(O)=O)OC)N=C3)C5=CC=C(Cl)C=C25)F', 'NOMO1', 'cell viability', '50.5%'),
  ('CC(C)C[C@@H](C(=O)N[C@H](C(=O)OC1CCCC1)c1ccccc1)[C@H](O)C(=O)NO', 'NOMO1', 'cell viability', '91.2%'),
  ('CC[C@@H](C)[C@H](NC(=O)[C@H](CC1CCCCC1)NC(=O)c1ccno1)C(=O)N1CCC2(CCc3ccccc32)CC1', 'NOMO1', 'cell viability', '73.7%'),
  ('Cc1n[nH]c2ccc(-c3cncc(OC[C@@H](N)Cc4c[nH]c5ccccc45)c3)cc12', 'NOMO1', 'cell viability', '1.27%'),
  ('CC1(C)CCC(=C(\C1)C2=CC=C(Cl)C=C2)/CN3CCN(CC3)C4=CC(=C(C=C4)C(=O)N[S+]([O-])(=O)C5=CC=C(NCC6CCOCC6)C(=C5)[N+]([O-])=O)OC7=CN=C8[NH]C=CC8=C7', 'NOMO1', 'cell viability', '28%');
